# System: HOP-62 NSCLC
# assay method text: NCI tumour cell line growth inhibition, 48 h
Some compounds, each annotated with its measured TGI.

compound | TGI
COc1cc2c3c([nH]c2c(OC)c1OC)CCN(Cc1ccccc1)C3 | > 100 µM
COc1cccc(Oc2ccccc2NC(=O)CNC(=O)c2cccc3ccccc23)c1 | > 25 µM
Cc1cccc(NC(=O)/C(=N\N)C(c2cnc3ccc([N+](=O)[O-])cc3n2)[N+](=O)[O-])c1C (centres undefined) | > 100 µM
N#CC1(C#N)C(c2ccccc2)C=CC12OCCCO2 (centres undefined) | > 100 µM

---

# Test system: M14 melanoma
# assay method text: NCI tumour cell line growth inhibition, 48 h
TGI for assorted compounds
measure name: TGI

compound | experimental system | measure name | test result
Nc1n[nH]c2ccc([C@@H]3Nc4cc5c(cc4[C@H]4C6CCC(C6)[C@@H]34)C(=O)NC5)cc12 (stereo partly drawn) | M14 melanoma | TGI | > 43.1 µM
C=CCC1(C)CCCN(Cc2ccccc2)C1=O (stereo not drawn) | M14 melanoma | TGI | > 10 µM
C/C(=N\O)c1cccc(Nc2cc(-n3ccnc3)c3ccccc3n2)c1 | M14 melanoma | TGI | 24.1 µM
N#Cc1nc(C#N)n(S(=O)(=O)c2ccccc2)c1NS(=O)(=O)c1ccccc1 | M14 melanoma | TGI | > 100 µM
COc1cccc(Oc2ccccc2NC(=O)CNC(=O)c2cccc3ccccc23)c1 | M14 melanoma | TGI | > 25 µM
CCCC(S(=O)(=O)c1ccccc1)S(=O)(=O)c1ccccc1 | M14 melanoma | TGI | > 100 µM
COc1cc(Nc2nc3cc(C(F)(F)F)ccc3n3cccc23)cc(OC)c1OC | M14 melanoma | TGI | > 100 µM
CN(CCCNC(=O)c1cc(-c2ccccc2)nc2ccccc12)CCCNC(=O)c1cc(-c2ccccc2)nc2ccccc12 | M14 melanoma | TGI | 3.17 µM
